test.target: human PXR (Homo sapiens, UniProt O75469)
Construct: host or cells: DPX-2 cell line (derived from HepG2)
Sequence (O75469 whole entry): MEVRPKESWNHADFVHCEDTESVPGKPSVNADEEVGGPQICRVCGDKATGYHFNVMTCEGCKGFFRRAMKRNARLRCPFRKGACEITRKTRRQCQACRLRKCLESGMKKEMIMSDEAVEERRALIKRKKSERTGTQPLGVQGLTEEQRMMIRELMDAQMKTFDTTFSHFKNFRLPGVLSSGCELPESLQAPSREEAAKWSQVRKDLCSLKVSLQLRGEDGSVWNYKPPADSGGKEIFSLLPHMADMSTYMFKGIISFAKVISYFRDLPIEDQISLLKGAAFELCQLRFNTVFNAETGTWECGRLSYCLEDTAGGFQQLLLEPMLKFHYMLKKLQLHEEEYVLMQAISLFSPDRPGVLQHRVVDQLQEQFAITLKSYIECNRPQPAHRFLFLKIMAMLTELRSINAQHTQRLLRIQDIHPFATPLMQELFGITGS
test: PXR assay: PXR mediated CYP3A4 induction in DPX-2 cell line
Type: cell-based
conditions: DPX-2 cells
property.label: CYP3A4 Induction-PXR human PXR internal Max % Activity (%)

{"compound": "Cc1c(S(=O)(=O)NC(=O)c2ccc(-n3ccc(OCC(C)(C)C(F)(F)F)n3)nc2N2C[C@@H](C)CC2(C)C)cnn1C", "test.target": "human PXR (Homo sapiens, UniProt O75469)", "unit.descriptor": "%", "meas.value": 4}
{"compound": "Cc1nn(C)cc1S(=O)(=O)NC(=O)c1ccc(-n2ccc(OCC(C)(C)C(F)(F)F)n2)nc1N1C[C@H](C)CC1(C)C", "test.target": "human PXR (Homo sapiens, UniProt O75469)", "unit.descriptor": "%", "meas.value": 7}
{"compound": "Cc1nn(C)cc1S(=O)(=O)NC(=O)c1ccc(-n2ccc(OC3CC3C(F)(F)F)n2)nc1N1C[C@@H](C)CC1(C)C (stereo partly drawn) [Compound 34]", "test.target": "human PXR (Homo sapiens, UniProt O75469)", "unit.descriptor": "%", "meas.value": 6}

* * *

test: Rat IV and PO PK studies
Format: in vivo, male Sprague-Dawley rats
conditions: PO, nominal 3 mg/kg
Quick reference: RAT PLASMA-RAW PO % F_drg of the listed items.
property.label: RAT PLASMA-RAW PO % F_drg (%)

{"smiles.structure": "Cc1c(S(=O)(=O)NC(=O)c2ccc(-n3ccc(OCC(C)(C)C(F)(F)F)n3)nc2N2C[C@@H](C)CC2(C)C)cnn1C", "meas.value": 65}
{"smiles.structure": "Cc1nn(C)cc1S(=O)(=O)NC(=O)c1ccc(-n2ccc(OCC3C4(CC4)C34CC4)n2)nc1N1C[C@@H](C)CC1(C)C", "meas.value": 80}
{"smiles.structure": "Cc1nn(C)cc1S(=O)(=O)NC(=O)c1ccc(-n2ccc(OCCC3(C(F)(F)F)CC3)n2)nc1N1C[C@@H](C)CC1(C)C", "meas.value": 66}
{"smiles.structure": "Cc1c(S(=O)(=O)NC(=O)c2ccc(-n3ccc(OCC4(C(F)(F)F)CC4)n3)nc2N2C[C@@H](C)CC2(C)C)cnn1C", "meas.value": 99}

* * *

test.target: human PXR (Homo sapiens)
Construct: host or cells: DPX-2 cell line (derived from HepG2)
test: PXR assay: PXR mediated CYP3A4 induction in DPX-2 cell line
Assay type: cell-based
conditions: DPX-2 cells
Quick reference: CYP3A4 Induction-PXR human PXR internal Max % Activity of the listed items.
property.label: CYP3A4 Induction-PXR human PXR internal Max % Activity (%)

{"compound": "Cc1nn(C)cc1S(=O)(=O)NC(=O)c1ccc(-n2ccc(OCC3C4CCC3CC4)n2)nc1N1C[C@@H](C)CC1(C)C (some centres unmarked)", "meas.value": 2}
{"compound": "C[C@@H]1CN(c2nc(-n3ccc(OCC(C)(C)C(F)(F)F)n3)ccc2C(=O)NS(=O)(=O)c2cn(C)nc2CO)C(C)(C)C1", "meas.value": 1}
{"compound": "C[C@H]1CC(C)(C)N2c3nc(-n4ccc(OCC(C)(C)C(F)(F)F)n4)ccc3C(=O)OC12 (some centres unmarked)", "meas.value": 13}
{"compound": "C[C@@H]1CN(c2nc(-n3ccc(OCCC4(C(F)(F)F)CC4)n3)ccc2C(=O)NS(=O)(=O)c2cn(C)nc2C(F)(F)F)C(C)(C)C1", "meas.value": 9}
{"compound": "Cc1nn(C)cc1S(=O)(=O)NC(=O)c1ccc(-n2ccc(OC3CC3C(F)(F)F)n2)nc1N1C[C@@H](C)CC1(C)C (some centres unmarked) [Compound 35]", "meas.value": 21}
{"compound": "Cc1c(S(=O)(=O)NC(=O)c2ccc(-n3ccc(OCC4C(C)(C)C4(C)C)n3)nc2N2C[C@@H](C)CC2(C)C)cnn1C", "meas.value": 1}
{"compound": "C[C@@H]1CN(c2nc(-n3ccc(OCC4(C(F)(F)F)CC4)n3)ccc2C(=O)NS(=O)(=O)c2cnn(C)c2)C(C)(C)C1", "meas.value": 0.9}
{"compound": "Cc1c(S(=O)(=O)NC(=O)c2ccc(-n3ccc(OCC(C4CC4)C4CC4)n3)nc2N2C[C@@H](C)CC2(C)C)cnn1C", "meas.value": 5}

* * *

Quick reference: Hepatocyte clearance-Rat Rat hepatocytes CL pct_unchanged of the listed items.
System: Rat hepatocytes
test: Hepatocyte clearance, rat hepatocytes; note: time not given here
Type: in vitro ADME
conditions: percent unchanged
property.label: Hepatocyte clearance-Rat Rat hepatocytes CL pct_unchanged (%)

{"molecule": "Cc1nn(C)cc1S(=O)(=O)NC(=O)c1ccc(-n2ccc(OCC3C4CCC3CC4)n2)nc1N1C[C@@H](C)CC1(C)C (stereo partly drawn) [Compound 52]", "unit.descriptor": "%", "meas.value": 18}
{"molecule": "Cc1nn(C)cc1S(=O)(=O)NC(=O)c1ccc(-n2ccc(OCC3C(C)(C)C3(C)C)n2)nc1N1C[C@@H](C)CC1(C)C [Compound 20]", "unit.descriptor": "%", "meas.value": 13}
{"molecule": "Cc1nn(C)cc1S(=O)(=O)NC(=O)c1ccc(-n2ccc(O[C@H]3C[C@@H]4CC[C@H]3C4)n2)nc1N1C[C@@H](C)CC1(C)C [Compound 51]", "unit.descriptor": "%", "meas.value": 29}
{"molecule": "C[C@H]1CC(C)(C)N2c3nc(-n4ccc(OCC(C)(C)C(F)(F)F)n4)ccc3C(=O)OC12 (stereo partly drawn) [Compound 57]", "unit.descriptor": "%", "meas.value": 35}
{"molecule": "Cc1nn(C)cc1S(=O)(=O)NC(=O)c1ccc(-n2ccc(OCC(C)(C)C(F)(F)F)n2)nc1N1CC(CO)CC1(C)C (stereo not drawn) [Compound 30]", "unit.descriptor": "%", "meas.value": 39}
{"molecule": "Cc1c(S(=O)(=O)NC(=O)c2ccc(-n3ccc(OCC(C)(C)C(F)(F)F)n3)nc2N2C[C@@H](C)CC2(C)C)cnn1C [Compound 13]", "unit.descriptor": "%", "meas.value": 117}
{"molecule": "C[C@@H]1CN(c2nc(-n3ccc(OCC4CCC4)n3)ccc2C(=O)NS(=O)(=O)c2cccnc2N)C(C)(C)C1 [D, reference compound]", "unit.descriptor": "%", "meas.value": 19}
{"molecule": "Cc1nn(C)cc1S(=O)(=O)NC(=O)c1ccc(-n2ccc(OCC3(C(F)(F)F)CC3)n2)nc1N1CC(C(C)(C)C)CC1(C)C (single isomer, unassigned) [Compound 54]", "unit.descriptor": "%", "meas.value": 30}
{"molecule": "C[C@@H]1CN(c2nc(-n3ccc(OCC(C)(C)C)n3)ccc2C(=O)NS(=O)(=O)c2ccccc2)C(C)(C)C1 [C, reference compound]", "unit.descriptor": "%", "meas.value": 6}
{"molecule": "Cc1n[nH]cc1S(=O)(=O)NC(=O)c1ccc(-n2ccc(OCC(C)(C)C(F)(F)F)n2)nc1N1C[C@@H](C)CC1(C)C [Compound 31]", "unit.descriptor": "%", "meas.value": 30}
{"molecule": "Cc1nn(C)cc1S(=O)(=O)NC(=O)c1ccc(-n2ccc(OCC(C)(C)C(F)(F)F)n2)nc1N1C[C@@H](C)CC1(C)C [Compound 1]", "unit.descriptor": "%", "meas.value": 66}
{"molecule": "Cc1nn(C)cc1S(=O)(=O)NC(=O)c1ccc(-n2ccc(OCCC(C3CC3)C3CC3)n2)nc1N1C[C@@H](C)CC1(C)C [Compound 38]", "unit.descriptor": "%", "meas.value": 56}
{"molecule": "C[C@@H]1CN(c2nc(-n3ccc(OCC4(C(F)(F)F)CC4)n3)ccc2C(=O)NS(=O)(=O)c2cnn(C(C)(C)C)c2)C(C)(C)C1 [Compound 8]", "unit.descriptor": "%", "meas.value": 62}
{"molecule": "Cc1c(S(=O)(=O)NC(=O)c2ccc(-n3ccc(OCC4(C(F)(F)F)CC4)n3)nc2N2C[C@@H](C)CC2(C)C)cnn1C [Compound 9]", "unit.descriptor": "%", "meas.value": 30}
{"molecule": "C[C@@H]1CN(c2nc(-n3ccc(OCC4(C(F)(F)F)CC4)n3)ccc2C(=O)NS(=O)(=O)c2cn[nH]c2)C(C)(C)C1 [Compound 5]", "unit.descriptor": "%", "meas.value": 33}
